Target: cathepsin G (Homo sapiens, UniProt P08311)
Construct: purified cathepsin G (0.2 µg) from human neutrophils; purchased Calbiochem; host or cells: human neutrophils (natural source)
Sequence (P08311 21-244 limits assumed): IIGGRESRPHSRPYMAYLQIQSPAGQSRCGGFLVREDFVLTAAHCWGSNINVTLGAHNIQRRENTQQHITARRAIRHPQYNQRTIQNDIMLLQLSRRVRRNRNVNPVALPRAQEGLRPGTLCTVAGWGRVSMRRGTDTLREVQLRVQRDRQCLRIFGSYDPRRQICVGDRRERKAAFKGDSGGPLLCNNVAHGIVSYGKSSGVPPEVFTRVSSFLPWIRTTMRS
Experiment: Cathepsin G activity in a cell-free assay (Suc-AAPF-pNA substrate)
Assay type: biochemical
Settings: at 10 µM
Reported inhibition at 10 µM values are given for each entry in this list.

CC(=O)O[C@@H]1CC[C@]2(C)C3=C(CC[C@H]2C1(C)C)[C@@]1(C)CC[C@@H]([C@H](CCC=C(C)C)C(=O)O)[C@]1(C)CC3: 27 to 44%

query: Any idea what inhibition at 10 µM was measured for "CC(C)=CCC[C@H](C(=O)O)[C@@H]1CC[C@]2(C)C3=C(CC[C@@]12C)[C@@]1(C)CCC(=O)C(C)(C)[C@@H]1CC3" ?
result: 27 to 44%

query: How about "C=C(C)[C@@H]1CC[C@]2(C)CC[C@]3(C)[C@H](CC[C@@H]4[C@@]5(C)CC[C@@H](OC(C)=O)[C@](C)(C(=O)O)[C@@H]5CC[C@]43C)[C@@H]12" ?
result: > 50%

query: Here is the next compound: "C=C(C)[C@@H]1CC[C@]2(C)CC[C@]3(C)[C@H](CC[C@@H]4[C@@]5(C)CC[C@@H](O)[C@](C)(C(=O)O)[C@@H]5CC[C@]43C)[C@@H]12"
result: 27 to 44%

* * *

Biological target: cathepsin G (Homo sapiens, UniProt P08311)
Construct: purified cathepsin G (0.2 µg) from human neutrophils; purchased Calbiochem; host or cells: human neutrophils (natural source)
Assay: Cathepsin G activity in a cell-free assay (Suc-AAPF-pNA substrate)
Assay type: biochemical
Conditions: cell-free, purified cathepsin G from human neutrophils; read-out: Cat. G IC50 (converted)
Description: Commercially available purified cathepsin G (0.2 µg) from human neutrophils (Calbiochem, La Jolla, CA, USA) was mixed with test compounds or DMSO (vehicle control) in 200 µL 0.1 M HEPES pH 7.4, 0.5 M NaCl, and 10% DMSO in a 96-well plate (Greiner Bio-One, Frickenhausen, Germany) and pre-incubated for 20 min at 25 °C. […]
recorded metric: IC50 (µM)
Give a bare numeral; the unit µM is implied.

query: Reported IC50 for "C[C@H]1[C@H](C)CC[C@]2(C)CC[C@]3(C)C(=CC[C@@H]4[C@@]5(C)CC[C@@H](OCC(=O)O)[C@](C)(C(=O)O)[C@@H]5CC[C@]43C)[C@H]12" : what is it?
result: 3.4

query: Moving on to the next compound: "C[C@H]1[C@H](C)CC[C@]2(C)CC[C@]3(C)C(=CC[C@@H]4[C@@]5(C)CC[C@@H](OC(=O)C(=O)O)[C@](C)(C(=O)O)[C@@H]5CC[C@]43C)[C@H]12"
result: 4.7

query: Also, "C[C@H]1[C@H](C)CC[C@]2(C)CC[C@]3(C)C(=CC[C@@H]4[C@@]5(C)CC[C@@H](O)[C@](C)(C(=O)O)[C@@H]5CC[C@]43C)[C@H]12" please.
result: 0.5

query: Param item: "C[C@H]1[C@H](C)CC[C@]2(C)CC[C@]3(C)C(=CC(=O)[C@@H]4[C@@]5(C)CC[C@@H](O)[C@](C)(C(=O)O)[C@@H]5CC[C@]43C)[C@H]12"
result: 4.1

query: What about "CC(=O)O[C@@H]1CC[C@@]2(C)[C@@H](CC[C@]3(C)[C@@H]2C(=O)C=C2[C@@H]4[C@@H](C)[C@H](C)CC[C@]4(C)CC[C@]23C)[C@@]1(C)C(=O)O" ?
result: 0.6
